Values from paper doi:10.1101/2024.12.02.625520

Assayed system: CHIKV nsP2 ATPase (Chikungunya virus)
Sequence (Q8JUX6 536-1333): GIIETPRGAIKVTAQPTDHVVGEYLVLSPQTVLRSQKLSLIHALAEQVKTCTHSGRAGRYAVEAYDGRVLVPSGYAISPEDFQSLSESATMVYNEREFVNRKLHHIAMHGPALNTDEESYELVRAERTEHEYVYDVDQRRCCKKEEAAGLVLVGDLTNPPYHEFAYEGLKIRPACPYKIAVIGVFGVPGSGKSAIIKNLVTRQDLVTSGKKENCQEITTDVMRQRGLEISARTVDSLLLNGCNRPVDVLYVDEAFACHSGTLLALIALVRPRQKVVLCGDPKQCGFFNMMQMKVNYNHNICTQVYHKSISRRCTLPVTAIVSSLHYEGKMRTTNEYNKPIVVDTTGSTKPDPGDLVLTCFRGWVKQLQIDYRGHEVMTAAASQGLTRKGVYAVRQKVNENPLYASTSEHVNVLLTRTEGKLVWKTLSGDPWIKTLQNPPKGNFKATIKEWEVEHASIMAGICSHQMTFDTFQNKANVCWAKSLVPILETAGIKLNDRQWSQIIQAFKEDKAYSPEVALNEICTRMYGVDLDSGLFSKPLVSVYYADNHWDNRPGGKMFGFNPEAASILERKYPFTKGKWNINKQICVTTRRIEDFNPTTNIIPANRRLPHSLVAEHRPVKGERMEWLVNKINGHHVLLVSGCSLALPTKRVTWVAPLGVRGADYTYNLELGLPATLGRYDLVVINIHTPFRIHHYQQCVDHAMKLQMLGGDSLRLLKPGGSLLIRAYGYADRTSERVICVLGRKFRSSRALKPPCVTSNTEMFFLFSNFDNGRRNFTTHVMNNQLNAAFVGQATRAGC
Assay protocol: High throughput nsP2 ATPase activity assay (Malachite Green)
Measurement conditions: read-out: Malachite Green % INHIBITION (ORIGINAL)
Category scheme (inhibition at 25 µM): low = under 60%, moderate = from 60% up to 70%, high = 70% and over

Consider the worked cases shown below.
Clc1ccccc1CSC1=NC2(CCCCC2)Nc2ccccc21 [RA-0001813]
moderate
CN(Cc1ccco1)c1nc(-c2ccc(Cl)cc2)nc2ccccc12 [RA-0001817]
low
O=C(CSc1nnc2c(=O)n(-c3cccc(F)c3)ccn12)c1c[nH]c2ccccc12 [RA-0001818]
low

Now turn to the next molecule.
Hey, which category is Cc1ccc(CSc2nsc(SCc3ccc(C)cc3)c2C#N)cc1 [RA-0001806] in, do you know? low
